System: HCT-116
Experiment: MTT cytotoxicity assay in normoxia and hypoxia, HCT-116
Type: cell-based, Human
Conditions: HCT-116
// Not satisfied strictly below 2 in HCR = hypoxic cytotoxicity ratio IC50 (aerobic)/IC50 (hypoxic); Satisfied otherwise

# COMPOUND, LABEL
rows = [
    ("NCCCCCNc1n[n+]([O-])c2ccccc2[n+]1[O-]", "Not satisfied"),
    ("Nc1n[n+]([O-])c2ccccc2[n+]1[O-] [TPZ, 3-amino-1,2,4-benzotriazine-1,4-dioxide, reference compound]", "Satisfied"),
    ("NCCCCCCCNc1n[n+]([O-])c2ccccc2[n+]1[O-]", "Not satisfied"),
    ("NCCNc1n[n+]([O-])c2ccccc2[n+]1[O-]", "Not satisfied"),
    ("NCCCCCCNc1n[n+]([O-])c2ccccc2[n+]1[O-]", "Not satisfied"),
    ("[O-][n+]1nc(NCCNc2n[n+]([O-])c3ccccc3[n+]2[O-])nc2ccccc21", "Satisfied"),
    ("NCCCNc1n[n+]([O-])c2ccccc2[n+]1[O-]", "Not satisfied"),
    ("NCCCCCCCCNc1n[n+]([O-])c2ccccc2[n+]1[O-]", "Satisfied"),
]
